Test system: HL-60(TB) leukemia
Test: NCI tumour cell line growth inhibition, 48 h; in the data active = GI50 below about 0.43 µM; inactive = the rest
Return exactly one item of class 1 for active, class 0 for inactive

Some entries whose results are on file:
Task item: Assay result, entry CN(C)CC1CCCCCC(CN(C)C)C1=O (stereo not given) — outcome?
Reply: class 0

Task item: Assay result, entry O=C(OCCBr)c1ccc(Cl)c([N+](=O)[O-])c1 — outcome?
Reply: class 0

Task item: Assay result, entry CCN1C(=O)N(CC)C2C1NN=c1s/c(=C\c3cc4ccccc4[nH]3)c(=O)n12 (stereo not given) — outcome?
Reply: class 1

Task item: Assay result, entry Cn1ccnc1C(=O)/C=C/c1ccc(CC(=O)Nc2ccc(C(F)(F)F)cc2)cc1 — outcome?
Reply: class 0

Task item: Assay result, entry FC(F)(F)c1ccc(-c2cnc(Cl)nc2NCc2cc(C(F)(F)F)cc(C(F)(F)F)c2)cc1 — outcome?
Reply: class 0

Others:
Task item: Assay result, entry CCCc1cc(=O)n2c(C(=O)Nc3ccccc3OC)c(C(=O)Nc3ccc(F)cc3)sc2n1 — outcome?
Reply: class 0

Task item: Assay result, entry COc1cc(C2CC(c3ccc(N(C)C)cc3)=NN2C(C)=O)cc(OC)c1OC (stereo not given) — outcome?
Reply: class 0

Task item: Assay result, entry CCCCCCCOc1c(OC)cc(C2CC(=O)Nc3c2c(C)nn3-c2nc3ccccc3[nH]2)cc1OC (stereo not given) — outcome?
Reply: class 0

Task item: Assay result, entry CC(C)N1C(NNC(=O)c2cnccn2)=NS(=O)(=O)c2ccccc21 — outcome?
Reply: class 0

Task item: Assay result, entry CCN(CC)c1ccc(C(=N)c2ccc(N(C)C)cc2)cc1 — outcome?
Reply: class 0

Task item: Assay result, entry Nc1nc(N)c(N=O)c(OCC2CCCCC2)n1 — outcome?
Reply: class 0

Task item: Assay result, entry O=C(CCCSc1nc(-c2ccccc2)cc(-c2ccc(Cl)cc2)n1)NO — outcome?
Reply: class 0

Task item: Assay result, entry C/C=C/[C@@H]1OC(=O)C2=C[C@@H](O)[C@@H](/C=C/C)O[C@H]21 — outcome?
Reply: class 0

Task item: Assay result, entry O=C(COc1cccc(/C=C2\COc3ccc(Cl)cc3C2=O)c1)c1ccc(Cl)cc1 — outcome?
Reply: class 0

Task item: Assay result, entry Cc1cn2c(/C=N/Nc3ccccn3)c(-c3ccc(Cl)c([N+](=O)[O-])c3)nc2s1 — outcome?
Reply: class 0
